Molecular target: T1, human TL1A (HuTL1A) (human, UniProt O95150 57-251, limits assumed, biotin-labelled in some assays (site not stated))
T1 construct: Expressed in EXPI-293 cells and purified by Ni-NTA (His-tag); Described as a trimeric antigen; also called TL1A antigen; WT
T1 sequence: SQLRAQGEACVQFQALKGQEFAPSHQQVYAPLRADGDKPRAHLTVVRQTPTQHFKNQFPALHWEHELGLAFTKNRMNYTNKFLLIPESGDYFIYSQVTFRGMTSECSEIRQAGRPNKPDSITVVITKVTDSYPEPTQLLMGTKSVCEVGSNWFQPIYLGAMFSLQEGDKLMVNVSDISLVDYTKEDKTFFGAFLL
Assay: DLS, antigen and antibody mixed in equal moles
readout: Ave Z-dia (nm) of the antigen-antibody complex
Kindly answer with a numeric value in nm, unit omitted.

Return reported Ave Z-dia (nm) of the antigen-antibody complex. Input binder: M701-3756 (antibody, human IgG1, kappa, L234A L235A, V domains shown, Fc-engineered IgG1; from the original phage library) VH: ELQLQESGPGLVKPSETLSLTCAVSGLSFTDFYWAWIRQPPGKGLEWIGEINHKGNTSYNPSLKSRVTVSIDTSKNQFSLKLSSVTAADTAVYFCARDFPNYTFDFWGQGTLVTVSS VL: DIQLTQSPGTLSLSPGERATLSCRASQSVSNHLAWYQQKPGQAPRLLIYGASKRATGIPDRFSGSGSGTDFTLTISRLEPEDFAVYYCQQYADAPLTFGQGTKVEIKR
19.1

Return reported Ave Z-dia (nm) of the antigen-antibody complex. Input binder: M701-3966 (antibody, human IgG1, kappa, L234A L235A, V domains shown, Fc-engineered IgG1) VH: ELQLQESGPGLVKPSETLSLTCAVSGVSFSDYHWAWIRQPPGKGLEWIGDINHRGHTNYNPSLKSRVTVSIDTSKNQFSLKLSSVTAADTAVYFCARDFPNFIFDYWGQGTLVTVSS VL: DIQLTQSPGTLSLSPGERATLSCRASQSVSSYLAWYQQKPGQAPRLLIYGASKRATGIPDRFSGSGSGTDFTLTISRLEPEDFAVYYCQQYGDSPLTFGQGTKVEIKR
18.6
